Target: VCB: PROTAC: SMARCA4^BD ternary complex (Homo sapiens, UniProt P40337+P51532)
Sequence (P40337 54-213): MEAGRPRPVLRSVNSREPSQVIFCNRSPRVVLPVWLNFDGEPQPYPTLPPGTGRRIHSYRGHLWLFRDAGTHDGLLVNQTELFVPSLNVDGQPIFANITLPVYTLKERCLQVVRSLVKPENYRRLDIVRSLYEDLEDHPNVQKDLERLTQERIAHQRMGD
Sequence (Q15369 17-112 partner limits assumed): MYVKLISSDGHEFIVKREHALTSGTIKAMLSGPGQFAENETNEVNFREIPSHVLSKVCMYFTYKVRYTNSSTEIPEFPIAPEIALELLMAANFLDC
Sequence (Q15370 1-104 partner limits assumed): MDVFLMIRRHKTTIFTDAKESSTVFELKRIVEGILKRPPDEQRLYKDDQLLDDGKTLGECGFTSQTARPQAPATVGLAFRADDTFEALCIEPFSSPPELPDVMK
Sequence (P51532 1448-1569): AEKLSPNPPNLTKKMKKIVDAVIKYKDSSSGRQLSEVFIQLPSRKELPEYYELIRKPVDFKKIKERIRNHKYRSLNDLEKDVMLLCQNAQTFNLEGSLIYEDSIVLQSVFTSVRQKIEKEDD
Assay: SPR ternary complex measurement, VCB immobilised, 10 µM SMARCA4^BD present
Format: binding
Design: P51532, residues 1448–1569 with additional N-terminal SM residues; His6 (TEV site) (N, cleaved yes); GST (TEV site) (N, cleaved yes); made in house; host or cells: SMARCA4^BD: Escherichia coli BL21(DE3)
Details: cooperativity, SMARCA4; ratio of KD values measured in the same run
Endpoint Name: alpha
The answer should be written as a number, with no unit following it.

Study these solved cases before continuing.
Cc1ncsc1-c1ccc([C@H](CC[C@@H](C)CCN2CCC(c3ccc4c(c3)n(C3CCCC3)c3nc(=O)c5c(Br)cccc5n43)CC2)NC(=O)[C@@H]2C[C@@H](O)CN2C(=O)[C@@H](NC(=O)C2(F)CC2)C(C)(C)C)cc1 [compound 29]: 1.1
Cc1ncsc1-c1ccc([C@H](COC(C)(C)CN2CCC(c3ccc4c(c3)n(C3CCCC3)c3nc(=O)c5c(Br)cccc5n43)CC2)NC(=O)[C@@H]2C[C@@H](O)CN2C(=O)[C@@H](NC(=O)C2(F)CC2)C(C)(C)C)cc1 [compound 28]: 0.8
Cc1ncsc1-c1ccc(CNC(=O)[C@@H]2C[C@@H](O)CN2C(=O)[C@@H](NC(=O)C2(F)CC2)C(C)(C)C)c(OCCCCN2CCC(c3ccc4c(c3)n(C3CCCC3)c3nc(=O)c5c(Br)cccc5n43)CC2)c1 [compound 23]: 0.2

Okay, now this compound:
If you can, please state the reported alpha value of Cc1ncsc1-c1ccc([C@H](CCC(C)(C)CCN2CCC(c3ccc4c(c3)n(C3CCCC3)c3nc(=O)c5c(Br)cccc5n43)CC2)NC(=O)[C@@H]2C[C@@H](O)CN2C(=O)[C@@H](NC(=O)C2(F)CC2)C(C)(C)C)cc1 [compound 30] . 0.6

Hey, just so you know, these numbers are from paper PMC9551036.
